Molecular target: hemagglutinin (HA) of influenza B/Malaysia/2506/04 (Victoria) (influenza B virus)
Test: cell-based or functional assay
Examples of binders with documented VNA IC50 follow.
result.type: VNA IC50 (nM)

SD3093 (VHH) VHH: EVQLVESGGGLVQPGGSLRLSCAISGLSLDTYAVGWFRQAPGKEREGVSCISSGHGMTYYADSVKGRFTISTDNSKNTVYLQMNSLRAEDTAVYYCATESRYYCSDNWPAPQRYIYWGQGTLVTVSS | 40
SD1087 (VHH) VHH: EVQLVESGGGLVQPGGSLRLSCVISGLSLDTYAVGWFRQAPGKEREGITCISSGHGMTYYADSVKGRFTVSTDNAKNTVYLQMNGLQPEDTARYYCATESRYYCSDNWPAPQRYIYWGQGTQVTVSS | 59
SD3092 (VHH) VHH: EVQLVESGGGLVQPGGSLRLSCAISGLSLDTYAVGWFRQAPGKEREGVSCISSGHGMTYYADSVKGRFTISTDNSKNTLYLQMNSLRAEDTAVYYCATESRYYCSDNWPAPQRYIYWGQGTLVTVSS | 40
